- Read-out: Cytochrome P450 2C19 (Homo sapiens) (UniProt P33261)
- Sequence (P33261 whole entry, looked up): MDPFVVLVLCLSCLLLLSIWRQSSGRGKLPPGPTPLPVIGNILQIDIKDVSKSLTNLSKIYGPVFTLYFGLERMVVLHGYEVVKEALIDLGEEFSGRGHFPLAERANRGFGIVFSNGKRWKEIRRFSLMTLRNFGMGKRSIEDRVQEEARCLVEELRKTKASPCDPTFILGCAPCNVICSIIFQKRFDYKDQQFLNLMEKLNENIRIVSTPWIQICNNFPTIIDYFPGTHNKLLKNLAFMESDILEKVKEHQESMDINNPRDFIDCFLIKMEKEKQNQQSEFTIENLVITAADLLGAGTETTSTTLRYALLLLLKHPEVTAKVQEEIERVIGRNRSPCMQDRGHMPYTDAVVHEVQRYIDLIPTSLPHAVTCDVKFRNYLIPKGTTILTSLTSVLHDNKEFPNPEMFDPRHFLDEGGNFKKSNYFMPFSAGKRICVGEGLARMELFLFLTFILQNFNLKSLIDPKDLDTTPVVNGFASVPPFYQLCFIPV
- assay.overview: LTEA_HepaRG_CYP2C19: Life Technologies and Expression Analysis (LTEA) Assay for CYP2C19 using HepaRG (AID 2283482)
- particulars: mRNA level, 48 h; actives raise or lower the signal
Active and inactive are the calls of the source. How the source made its calls: active means hit-call score of the fitted dose curve at least 0.9, where 1 is the maximum; inactive means score below 0.9.
Returns: one label drawn from active, inactive

CC1=C(/C=C/C(C)=C/C=C/C(C)=C/CO)C(C)(C)CCC1 ... active
CC(=O)C(C)=CC1C(C)=CCCC1(C)C (stereo not drawn) ... inactive
O=[N+]([O-])C(CO)(CO)CO ... inactive

# input Name the outcome recorded for `Cc1nc(C)nc(N2C[C@@H](C)N(c3ccnc([C@@H](C)O)n3)[C@@H](C)C2)n1` in the assay.
# output inactive

# input Next record, please: CC1(C)CC(N=C=O)CC(C)(CN=C=O)C1 (stereo not drawn)
# output inactive

# input Try this compound next: `Oc1ccc2c(c1)OC[C@@H](N1CCC(O)(c3ccc(F)cc3)CC1)[C@H]2O`
# output inactive

Hello, the source for this data is PubChem BioAssay (EPA / NIEHS), in case you need it.
